// data source = patent US20240262910A1

tested_system: T1, human CD33, full length, on cells (human, UniProt P20138 18-364)
T1 construct: NIH-3T3 cells stably overexpressing full-length human CD33, or AML lines U937 and Set2 with endogenous CD33; the cell line is named under assay; also called 3T3-huCD33; 3T3-CD33
T1 sequence (P20138 18-364): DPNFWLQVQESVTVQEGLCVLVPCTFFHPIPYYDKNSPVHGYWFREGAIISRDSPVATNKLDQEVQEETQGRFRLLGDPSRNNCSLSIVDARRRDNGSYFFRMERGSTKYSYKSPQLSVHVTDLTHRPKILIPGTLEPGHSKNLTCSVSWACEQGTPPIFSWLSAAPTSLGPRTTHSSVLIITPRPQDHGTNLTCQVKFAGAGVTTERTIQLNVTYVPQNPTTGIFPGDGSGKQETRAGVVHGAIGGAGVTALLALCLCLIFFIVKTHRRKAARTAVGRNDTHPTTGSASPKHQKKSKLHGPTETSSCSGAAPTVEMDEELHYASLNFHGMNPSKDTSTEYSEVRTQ
experiment_description: flow cytometry, hybridoma supernatant, U937 cells
measurement_type: MFI (MFI)
The answer is to be given in MFI; state only the numeric part.

Illustrative cases are given below, each with its answer.
{"columns": ["binder", "reading"],
 "data": [
  ["1-J19 (hybridoma antibody) (antibody, V domains shown, AlivaMab mouse hybridoma antibody; also called 1-J19-A) VH: QVQLQQSGPGLVKPSQTLSLTCAISGDSVSSNSAAWNWIRQSPSRGLEWLGRTYFRSKWYNVYAVSVKSRITINPDTSKNQFSLQLNSVTPEDTAVYYCASEGGSYYDHWGQGTLVTVSS VL: DIQMTQSPSSVSASVGDRVTITCRASQGISNWLTWYQQKPGKAPKLLIYAASSLQSGVPSRFSGSGSGTDFTLTISSLQPEDFATYYCQQADSFPFTFGPGTKVDIK", 339000],
  ["1-A20 (antibody, V domains shown, AlivaMab mouse hybridoma antibody; also called 1-A20-A) VH: QVQLQESGPGLVKPSETLSLTCTVSGDSISSYYWSWIRQPAGKGLEWIGRIYTSGNTNYNPSLKSRVTMSVDKSKNQFSLKLRSVTAADTAVYYCARDGDNRDSDAFDIWGQGTMVTVSS VL: SPGTLSLSPGERATLSCRASQNISSSYLAWCQQKPGQAPRLFIYGTSRRATGIPDRFSGSGSGTDFTLTISRLEPEDFAVYYCQQYGSSPLTFGGGTKVEIK", 558000]
]}

Exercise: Record request: MFI value, item 1-P23 (antibody, V domains shown, AlivaMab mouse hybridoma antibody; also called 1-P23-A) VH: QVQLVESGGGVVQPGRSLRLSCAASGFTFNSYGMHWVRQAPGKGLEWVAIISYDGSNKYYADSVKGRFTISRDNSKNTLYLQMNSLRAEDTAVYYCARDNYDSSGYNWYFDLWGRGTLVTVSS VL: SSELTQDPAVSVALGQTVRITCQGDSLRSYYASWYQQKPGQAPVLVIYGKNNRPSGIPDRFSGSSSGNTASLTITGAQAEDEADYYCNSRDSSGNLWVFGGGTKLTVL
Key: 456000
